Tested on: HL-60
Test: Cytotoxicity against human HL60 cells assessed as cell growth at 10 uM after 48 hrs by SRB assay relative to control
Assay type: functional
Conditions: HL-60, 48 h, read-out: Activity
Reported Metric: growth at 10 µM (%)

- Cn1cc(-c2[nH]c(=S)[nH]c(=O)c2-c2cn(C)c3ccccc23)c2ccccc21: 104
- Cn1c2ccccc2c2c3c(=O)[nH]c(N)nc3c3c4cccnc4n(C)c3c21: 72.8
- Cn1c2ccccc2c2c3nc(N)[nH]c(=O)c3c3c4ccccc4n(C)c3c21: 34.3
- Cn1cc(-c2nc(N)[nH]c(=O)c2-c2cn(C)c3ccccc23)c2ccccc21: 103
- Cn1cc(-c2c(-c3cn(C)c4ncccc34)nc(N)[nH]c2=O)c2ccccc21: 105

====

Tested on: HT-29
Test: Cytotoxicity against human HT-29 cells assessed as cell growth at 10 uM after 48 hrs by SRB assay relative to control
Type: functional
Conditions: HT-29, 48 h, read-out: Activity
Reported Metric: growth at 10 µM (%)

- Cn1cc(-c2nc(N)[nH]c(=O)c2-c2cn(C)c3ccccc23)c2ccccc21: 94.3
- Cn1cc(-c2[nH]c(=S)[nH]c(=O)c2-c2cn(C)c3ccccc23)c2ccccc21: 112
- Cn1c2ccccc2c2c3c(=O)[nH]c(N)nc3c3c4cccnc4n(C)c3c21: 78
- Cn1c2ccccc2c2c3nc(N)[nH]c(=O)c3c3c4ccccc4n(C)c3c21: 17.6
- Cn1cc(-c2c(-c3cn(C)c4ncccc34)nc(N)[nH]c2=O)c2ccccc21: 98.5

====

System: T47D
Assay: Cytotoxicity against human T47D cells assessed as cell growth at 10 uM after 48 hrs by SRB assay relative to control
Format: functional
Details: read-out: Activity
Returns one of Criterion met or Criterion not met; Criterion met when growth at 10 µM is >= 80%.

• Cn1c2ccccc2c2c3c(=O)[nH]c(N)nc3c3c4cccnc4n(C)c3c21 = Criterion not met
• Cn1cc(-c2[nH]c(=O)[nH]c(=O)c2-c2cn(C)c3ccccc23)c2ccccc21 = Criterion met
• Cn1cc(-c2nc(N)[nH]c(=O)c2-c2cn(C)c3ccccc23)c2ccccc21 = Criterion met
• Cn1c2ccccc2c2c3nc(N)[nH]c(=O)c3c3c4ccccc4n(C)c3c21 = Criterion not met
• Cn1cc(-c2[nH]c(=S)[nH]c(=O)c2-c2cn(C)c3ccccc23)c2ccccc21 = Criterion met
• Cn1cc(-c2c(-c3cn(C)c4ncccc34)nc(N)[nH]c2=O)c2ccccc21 = Criterion met

====

Tested on: SK-OV-3
Assay: Cytotoxicity against human SKOV3 cells assessed as cell growth at 10 uM after 48 hrs by SRB assay relative to control
Format: functional
Conditions: SK-OV-3, 48 h, read-out: Activity
# growth at 10 µM annotations
Reported Metric: growth at 10 µM (%)

- Cn1c2ccccc2c2c3nc(N)[nH]c(=O)c3c3c4ccccc4n(C)c3c21: 34.9
- Cn1cc(-c2nc(N)[nH]c(=O)c2-c2cn(C)c3ccccc23)c2ccccc21: 95.8
- Cn1cc(-c2c(-c3cn(C)c4ncccc34)nc(N)[nH]c2=O)c2ccccc21: 98.3
- Cn1cc(-c2[nH]c(=O)[nH]c(=O)c2-c2cn(C)c3ccccc23)c2ccccc21: 96.8
- Cn1cc(-c2[nH]c(=S)[nH]c(=O)c2-c2cn(C)c3ccccc23)c2ccccc21: 100
- Cn1c2ccccc2c2c3c(=O)[nH]c(N)nc3c3c4cccnc4n(C)c3c21: 87.2
